Test system: human liver cytosol
test: Incubation of F18 with human liver cytosol, metabolite profiling
Assay type: in vitro ADME
Set-up: key: +: Metabolite detected; −: metabolite not detected
assay-context: F18 50 μM, 1 h, NADH
measured-property: F18 metabolite detected in HLcy with NADH

Example molecules with recorded F18 metabolite detected in HLcy with NADH:
CCCc1cc(=O)oc2c3c(c4c(c12)OC(C)(C)C=C4)O[C@H](CCl)C[C@@H]3O (relative stereo) [Metabolite M3-2, cis-12-hydroxy F18]
+
CCC(O)c1cc(=O)oc2c3c(c4c(c12)OC(C)(C)C=C4)OC(CCl)CC3=O (centres unmarked) [Metabolite M5-4]
−
CC=Cc1cc(=O)oc2c3c(c4c(c12)OC(C)(C)C=C4)OC(CCl)CC3=O (centres unmarked) [Metabolite M2-9]
−
CCC(O)c1cc(=O)oc2c3c(c4c(c12)OC(C)(C)C=C4)OC(CCl)CC3=O (centres unmarked) [Metabolite M5-5]
−
CC(O)Cc1cc(=O)oc2c3c(c4c(c12)OC(C)(C)C=C4)OC(CCl)CC3=O (centres unmarked) [Metabolite M5-3]
−
CC(O)Cc1cc(=O)oc2c3c(c4c(c12)OC(C)(C)C=C4)OC(CCl)CC3=O (centres unmarked) [Metabolite M5-2]
−

Count: 2. Required value per item: F18 metabolite detected in HLcy with NADH.
1. CCCc1cc(=O)oc2c3c(c4c(c12)OC(C)(C)C=C4)O[C@H](CCl)C[C@H]3O (relative stereo) [Metabolite M3-1, trans-12-hydroxy F18]
2. CCCc1cc(=O)oc2c3c(c4c(c12)OC(C)(C)C=C4)OC(CO)CC3=O (centres unmarked) [Metabolite M1]

["+", "−"]
